- Tested on: HCV replicon (HCV 1b-377-neo replicon cells, Huh7)
- test: HCV replicon cell-based FRET assay
- measurement-parameters: Hepatitis C virus, Huh-7
pEC50: −log10 of the molar value.
measured-endpoint: pEC50

compound	reported-measurement
CC(C)(C)OC(=O)N[C@H]1CCCCC/C=C\[C@@H]2C[C@@]2(C(=O)NS(=O)(=O)C2CCC2)NC(=O)[C@@H]2C[C@@H](Oc3nccc4ccccc34)CN2C1=O	> 7.30
COc1ccc2c(OC3CC4C(=O)NC5(C(=O)NS(=O)(=O)C6CC6)CC5C=CCCCOC(C)C(NC(=O)OCC(C)(C)C)C(=O)N4C3)nccc2c1 (centres unmarked)	6.30 to 7.30
COc1ccc2c(OC3CC4C(=O)NC5(C(=O)NS(=O)(=O)C6(C)CC6)CC5C=CCCCOC(C)C(NC(=O)OC(C)(C)C)C(=O)N4C3)nccc2c1 (centres unmarked)	6.30 to 7.30
CC1(OC(=O)N[C@H]2CCCCC/C=C\[C@@H]3C[C@@]3(C(=O)NS(=O)(=O)C3CC3)NC(=O)[C@@H]3C[C@@H](Oc4nccc5ccccc45)CN3C2=O)CCC1	> 7.30
COc1ccc2c(OC3CC4C(=O)NC5(C(=O)NS(=O)(=O)C6CC6)CC5C=CCCCOCC(NC(=O)NC(C)(C)C)C(=O)N4C3)nc(-c3ccc(N(C)C)cc3)cc2c1 (centres unmarked)	> 7.30
COc1ccc2c(OC3CC4C(=O)NC5(C(=O)NS(=O)(=O)C6CC6)CC5C=CCCCOCC(NC(=O)OC5CCCC5)C(=O)N4C3)nccc2c1 (centres unmarked)	> 7.30
COc1ccc2c(O[C@@H]3C[C@H]4C(=O)N[C@]5(C(=O)O)C[C@H]5/C=C\CCCSC(C)(C)[C@H](NC(=O)OC(C)(C)C)C(=O)N4C3)nccc2c1	4.30 to 5.30
COc1ccc2c(OC3CC4C(=O)NC5(C(=O)NS(=O)(=O)C6CC6)CC5C=CCCCOCC(NC(=O)OCC(C)(C)C)C(=O)N4C3)nccc2c1 (centres unmarked)	> 7.30
COc1ccc2c(OC3CC4C(=O)NC5(C(=O)NS(=O)(=O)C6CC6)CC5C=CCCCSC(C)(C)C(NC(=O)NC(C)(C)C)C(=O)N4C3)nccc2c1 (centres unmarked)	6.30 to 7.30
COc1ccc2c(OC3CC4C(=O)NC5(C(=O)NS(=O)(=O)C6(C)CC6)CC5C=CCCCSCC(NC(=O)OCC(C)(C)C)C(=O)N4C3)nccc2c1 (centres unmarked)	> 7.30
CCC1(S(=O)(=O)NC(=O)C23CC2C=CCCCOC(C)C(NC(=O)OC(C)C)C(=O)N2CC(Oc4nccc5cc(OC)ccc45)CC2C(=O)N3)CC1 (centres unmarked)	6.30 to 7.30
